B1: PTPRD (parent)
chain: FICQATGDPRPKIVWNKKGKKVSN

- Variants of: B1
- ASSAY METHOD TEXT: protein stability index of a GFP-peptide fusion (GPS, HEK-293T) (PSI 1-6); higher = more stable;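 also: lentivirally expressed fusions sorted by FACS into six bins by GFP to DsRed ratio, PSI derived from sequencing read proportions per bin multiplied by bin number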
- CONDITION CONTEXT: c terminus: a fixed tail appended
PARAMETER MEASURED: protein stability index

> print(dat)
     var       parameter.measured  endpoint.value
 1   A5M  protein stability index            2.02
 2   F1E  protein stability index             3.2
 3  K12S  protein stability index            2.17
 4   F1G  protein stability index            4.53
 5   I2L  protein stability index            2.59
 6   C3G  protein stability index             2.2
 7  W15I  protein stability index            2.26
 8   D8F  protein stability index            1.85
 9  K17I  protein stability index            1.31
10   P9G  protein stability index             1.4
11   A5Q  protein stability index            1.95
12  V14G  protein stability index               2
13   P9Y  protein stability index            1.53
14  K20V  protein stability index            1.44
15  V14S  protein stability index            2.27
16   P9W  protein stability index            1.53
17  K18E  protein stability index            2.41
18   D8Y  protein stability index            1.45
19  G19A  protein stability index            2.23
20  P11L  protein stability index            3.08
21  K12L  protein stability index            3.35
22  K17H  protein stability index            1.96
